Listing of recorded LD50 by entry.
# assaySummary: Acute toxicity in white mice with subcutaneous application
# setupConditions: mouse, in vivo, sc
Dear colleague, please return just the value in mg/kg, with no unit written.

Consider the following illustrative entries.
smilesEntry	assayValue
Cc1cc(Cc2ccccc2)cc(Br)c1O	1500
CCc1cc(Cc2ccccc2)cc(Br)c1O	2800

Now take the following molecule into account.
Suppose we examine the molecule Cc1cc(Cc2ccccc2)cc(Cl)c1O ; what LD50 value has been reported?
1200
